target: P. falciparum apicoplast DNA polymerase (Pf-apPOL) (Plasmodium falciparum, UniProt Q8ILY1); assay: Fluorescence-based high-throughput DNA polymerase assay (molecular beacon), primary screen and dose-response; format: biochemical; settings: DRC-2; 5'; concentration 80
Sequence (Q8ILY1 entry or part of it): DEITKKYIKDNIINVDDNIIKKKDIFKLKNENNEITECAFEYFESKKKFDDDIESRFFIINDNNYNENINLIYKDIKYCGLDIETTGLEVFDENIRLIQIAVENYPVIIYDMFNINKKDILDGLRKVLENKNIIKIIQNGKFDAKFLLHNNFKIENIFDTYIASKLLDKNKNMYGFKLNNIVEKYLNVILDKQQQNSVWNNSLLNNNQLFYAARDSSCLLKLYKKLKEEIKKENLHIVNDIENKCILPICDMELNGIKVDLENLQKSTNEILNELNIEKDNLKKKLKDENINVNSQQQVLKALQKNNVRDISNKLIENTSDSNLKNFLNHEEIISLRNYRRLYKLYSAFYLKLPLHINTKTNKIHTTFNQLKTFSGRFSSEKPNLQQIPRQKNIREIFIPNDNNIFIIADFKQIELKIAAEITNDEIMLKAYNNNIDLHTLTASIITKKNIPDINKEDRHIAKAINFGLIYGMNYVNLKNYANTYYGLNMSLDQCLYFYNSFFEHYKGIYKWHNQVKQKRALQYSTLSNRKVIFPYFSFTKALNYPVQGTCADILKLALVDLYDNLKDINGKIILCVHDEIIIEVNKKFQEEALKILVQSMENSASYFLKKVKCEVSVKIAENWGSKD
RECORDED METRIC: % inhibition Apo pol 5' (%)
Output spec: scalar in %, unitless text.

O=C(O)CCS(=O)(=O)c1ccc(-c2ccc(S(=O)(=O)CCC(=O)O)cc2)cc1 has a reported % inhibition Apo pol 5' of 51

Entry under test: O=C1Nc2ccc(I)cc2C1=Cc1cc(Br)c(O)c(Br)c1 . Its % inhibition Apo pol 5' was 54

The reported value for CC(=O)Nc1cc(C(=O)NC(C)C)c2ccc(C)nc2c1 in terms of % inhibition Apo pol 5' is 43

New cases:
// O=C(O)c1ccc(-c2nc3cc(-c4ccc5nc(-c6ccc(C(=O)O)cc6)[nH]c5c4)ccc3[nH]2)cc1 : % inhibition Apo pol 5' value = 22

Value of % inhibition Apo pol 5' reported for the compound Cc1cc(C)c2c(O)nc(SCC(=O)c3ccc(O)c(O)c3)nc2n1 is 31

Looking up COc1ccc(NC(=O)Cn2ccc3c(=O)[nH]ccc32)cc1Cl [Molecule 10, COc1ccc(cc1Cl)NC(=O)Cn1ccc2c1cc[nH]c2=O] , I see its % inhibition Apo pol 5' listed as 19

O=C1NN(c2ccc(Cl)c(Cl)c2)C(=O)/C1=C/c1ccc(-c2ccc3c(c2)C(=O)OC3)o1 has a reported % inhibition Apo pol 5' of 63

Entry under test: CCCCCCCCCCCC1SCC(C(=O)O)N1C(C)=O (centres unmarked) . Its % inhibition Apo pol 5' was 59

###

# % inhibition Apol 90' 20 per entry
molecular target: UniProt:Q8ILY1; experiment: Fluorescence-based high-throughput DNA polymerase assay (molecular beacon), primary screen and dose-response; format: biochemical; details: DRC-1; read at 90'; concentration 20
Enter your answer as a number in %; do not include the unit.

Recorded results for 2 compounds are shown here.
Given item O=C(c1ccccc1)N1CCc2c(nc3cc(-c4ccccc4)[nH]n3c2=O)C1 [Molecule 30] , the value recorded as its % inhibition Apol 90' 20 is 61.0288

# % inhibition Apol 90' 20 (compound: Cc1nc(C)c2c(n1)N(CC1CCCCC1)C(=O)CC2 [KU0218606] ) is 47.74

Next item in the queue.
So, Cc1ccc(N2CCC(NC(=O)Cc3cccs3)C2=O)cc1C (stereo not drawn) [Molecule 57, O=C(NC1CCN(C1=O)c1ccc(c(c1)C)C)Cc1cccs1] ? Its % inhibition Apol 90' 20 was 42.7079

###

molecular target: UniProt:Q8ILY1; assay: Fluorescence-based high-throughput DNA polymerase assay (molecular beacon), primary screen and dose-response; assay type: biochemical; conditions: DRC-1; 180'; concentration 20
Threshold check on % inhibition apPOL 180': at or above 30% gives true (1), strictly below gives false (0).

Kindly determine if % inhibition apPOL 180' recorded for COc1cc(/C=C2\S/C(=N/C(C)=O)NC2=O)cc(Br)c1OCC(=O)O is above or exactly 30%.
false (0)

Continuing:
Please indicate if the recorded % inhibition apPOL 180' for O=[N+]([O-])c1cc2c(cc1CN1CCCCCC1)OCO2 meets or exceeds 30%.
false (0)

Decide: % inhibition apPOL 180' of Cc1cc(C)cc(-n2nc3c(c2NC(=O)c2ccco2)CSC3)c1 >= 30%?
true (1)

Is % inhibition apPOL 180' for O=C(Nc1cccc(Cl)c1)Nc1nnc(-c2ccncc2)s1 at or above 30%?
true (1)

###

target: UniProtKB Q8ILY1; assay: Fluorescence-based high-throughput DNA polymerase assay (molecular beacon), primary screen and dose-response; type: biochemical; details: DRC-1; 10'; conc 5
RECORDED METRIC: % inhibition Apo pol 10' (%)
Supply the numeric figure in %, leaving out any unit text.

Examples with their reported % inhibition Apo pol 10' follow.
The recorded % inhibition Apo pol 10' for CC(C)CCNC(=O)c1cnn2c(O)cc(CSc3ccc(Cl)cc3)nc12 is 10.5875

The reported value for O=C(O)c1ccc(COc2cc([N+](=O)[O-])cc3cccnc23)cc1 in terms of % inhibition Apo pol 10' is 27.7405

Record summary for Cc1ccccc1NC(=O)Cn1ccc2c(=O)[nH]ccc21 [Molecule 50, O=C(Cn1ccc2c1cc[nH]c2=O)Nc1ccc(cc1)C] : reported % inhibition Apo pol 10' = 25.5303

Now take the following compound into account.
% inhibition Apo pol 10' reported for this compound Cc1ccc(N2NC(=O)/C(=C\c3ccc(O)c([N+](=O)[O-])c3)C2=O)cc1Cl : 22.1201

###

molecular target: P. falciparum apicoplast DNA polymerase (Pf-apPOL) (Plasmodium falciparum); test: Fluorescence-based high-throughput DNA polymerase assay (molecular beacon), primary screen and dose-response; format: biochemical; conditions: 'DNA Pol'; screening value, unit not given; 90 min, 10 µM
RECORDED METRIC: DNA Pol

# count of solved cases: 6
Item O=[N+]([O-])c1cc2c(cc1CN1CCCCCC1)OCO2 ; assay system P. falciparum apicoplast DNA polymerase (Pf-apPOL) (Plasmodium falciparum); DNA Pol reported as 33

Measured on P. falciparum apicoplast DNA polymerase (Pf-apPOL) (Plasmodium falciparum), O=C(O)CC1SC(c2ccc3c(c2)OCO3)=NC1=O (centres unmarked) has a documented DNA Pol of 73

Item CCSc1nnc(NC(=O)Cc2csc(NC(=O)c3cnccn3)n2)s1 ; assay system P. falciparum apicoplast DNA polymerase (Pf-apPOL) (Plasmodium falciparum); DNA Pol reported as 44

Bench note, P. falciparum apicoplast DNA polymerase (Pf-apPOL) (Plasmodium falciparum): entry COc1cc(/C=C2\S/C(=N/C(C)=O)NC2=O)cc(Br)c1OCC(=O)O , its DNA Pol = 27

Item CCOc1ccccc1-c1nc(-c2ccc(=O)[nH]c2)no1 [Molecule 76, CCOc1ccccc1c1onc(n1)c1ccc(=O)[nH]c1] ; assay system P. falciparum apicoplast DNA polymerase (Pf-apPOL) (Plasmodium falciparum); DNA Pol reported as 20

Given the compound COc1ccc2c(c1)CCc1c-2nc2ccc(Br)cc2c1C(=O)O and test system P. falciparum apicoplast DNA polymerase (Pf-apPOL) (Plasmodium falciparum), the measured DNA Pol is 29

Continuing:
For O=C(Nc1nnc(-c2ccno2)o1)c1ccc2ncsc2c1 on P. falciparum apicoplast DNA polymerase (Pf-apPOL) (Plasmodium falciparum), measured DNA Pol was 57

Case O=C(NNC(=O)C(F)(F)Sc1ccccc1)c1ccsc1 [Molecule 68, O=C(C(Sc1ccccc1)(F)F)NNC(=O)c1cscc1] , P. falciparum apicoplast DNA polymerase (Pf-apPOL) (Plasmodium falciparum), DNA Pol recorded as 82

Known value: P. falciparum apicoplast DNA polymerase (Pf-apPOL) (Plasmodium falciparum) DNA Pol of the compound CSC(C)C(=O)C=CN(C)C (centres unmarked) equals 74

Lab note: compound CN(C)C=CC(=O)c1ccccn1 tested on P. falciparum apicoplast DNA polymerase (Pf-apPOL) (Plasmodium falciparum); recorded DNA Pol was 79

Reading of DNA Pol for COc1ccccc1CCC(=O)N1CCc2c(nc3cc(-c4ccccc4)[nH]n3c2=O)C1 with P. falciparum apicoplast DNA polymerase (Pf-apPOL) (Plasmodium falciparum): 40

###

biological target: UniProt:Q8ILY1; assay: Fluorescence-based high-throughput DNA polymerase assay (molecular beacon), primary screen and dose-response; assay type: biochemical; conditions: conc 80 (unit not given); 90'; DRC-2
RECORDED METRIC: % inhibition ApPOL 90' (%)
Provide only the numeric value, understood in %.

Note to self: % inhibition ApPOL 90' recorded for CSCCC(C)(O)CNC(=O)C1CC1 (stereo not shown) was 41

The measured % inhibition ApPOL 90' associated with O=C(O)CC1=NN(c2cccc([N+](=O)[O-])c2)C(=O)C1 reads 71

Notebook: O=[N+]([O-])c1cc2c(cc1CN1CCN(c3cccc(Cl)c3)CC1)OCO2 , % inhibition ApPOL 90' read as 61

Okay, now this molecule:
# % inhibition ApPOL 90' of COc1cc(/C=C2\S/C(=N/C(C)=O)NC2=O)cc(Br)c1OCC(=O)O = 60

###

molecular target: P. falciparum apicoplast DNA polymerase (Pf-apPOL) (Plasmodium falciparum); assay: Fluorescence-based high-throughput DNA polymerase assay (molecular beacon), primary screen and dose-response; type: biochemical; settings: DRC-1; 10'; concentration 80
RECORDED METRIC: % inhibition Apo pol 10' (%)
The reply should contain only the number, in %.

Some entries whose results are on file:
Short answer for Cc1cccc2c(C(=O)NC(C)C)cc(N(C)C)nc12 [Molecule 47, CC(NC(=O)c1cc(nc2c1cccc2C)N(C)C)C] : % inhibition Apo pol 10' was 75.9231

Sure, the documented % inhibition Apo pol 10' for CCOc1cccc2cc(C(=O)Nc3nnc(-c4ccno4)o3)oc12 [Molecule 28, CCOc1cccc2c1oc(c2)C(=O)Nc1nnc(o1)c1ccno1] is 93.7028

Sample Cc1ccc(CCNC(=O)c2cnn3c(O)c(Cc4ccccc4F)c(C)nc23)cc1 [KU0097142] ; % inhibition Apo pol 10' observed: 88.0629

GET /value?item= Cc1ccc(NC(=O)Cn2ccc3c(=O)[nH]ccc32)cc1F [Molecule 48, O=C(Cn1ccc2c1cc[nH]c2=O)Nc1ccc(c(c1)F)C] &field=% inhibition Apo pol 10' returns 79.5186

# % inhibition Apo pol 10' of Cn1nc(C(=O)N2CCc3c(nc4cc(-c5ccccc5)[nH]n4c3=O)C2)c2ccccc21 [Molecule 18] = 55

More entries:
Item: O=C(O)c1ccc(-c2nc3cc(-c4ccc5nc(-c6ccc(C(=O)O)cc6)[nH]c5c4)ccc3[nH]2)cc1 [Molecule 1] | % inhibition Apo pol 10': 67.7005

According to the records, this compound N#Cc1c(C2CCCCC2)nc(Sc2ccc(C(F)(F)F)cc2[N+](=O)[O-])[nH]c1=O [Molecule 20] displays % inhibition Apo pol 10' of 98.9889
